- Run description: ATG_Oct_MLP_CIS: Attagene CIS-FACTORIAL HepG2 Assay for human Octamer-Binding Transcription Factor (Oct) (AID 2282993)
- Settings: HepG2 Attagene cis-factorial Oct reporter, mRNA; actives raise or lower the signal
The source made the active and inactive calls. Rule for the calls: active = hit-call score of the fitted dose curve at least 0.9, where 1 is the maximum; inactive = score below 0.9.
Outcome codes: active, inactive

CCC[N+](CCC)(CCC)CCC | inactive
O=NN1CCCCCCC1 | inactive
Brc1c(Br)c(Br)c(Oc2c(Br)c(Br)c(Br)c(Br)c2Br)c(Br)c1Br | inactive
O=[N+]([O-])c1cccc2ccccc12 | inactive
Brc1ccc(Oc2c(Br)cc(Br)cc2Br)c(Br)c1 | inactive
CN(C)C(=S)S | inactive
Nc1nc(N)nc(Cl)n1 | inactive
CN(C)c1ccc(N=O)cc1 | inactive
Oc1cc(Cl)c(Cl)cc1Cl | active
O=c1[nH]c(=O)n(Cl)c(=O)n1Cl | inactive
O=C(Nc1ccc(Br)cc1)c1cc(Br)cc(Br)c1O | active
Cc1ccccc1OP(=O)(Oc1ccccc1)Oc1ccccc1 | inactive
C#CCO | inactive
Cc1cc(Cl)ccc1N | inactive
COC(=O)c1cc(Oc2ccc(Cl)cc2Cl)ccc1[N+](=O)[O-] | inactive
CNC(=O)N(C)c1nc2ccccc2s1 | inactive
O=C1C=CC(=O)c2ccccc21 | inactive
O=NN1CCOCC1 | inactive
